Values compiled from PubChem BioAssay (NCI).

Test system: SW-620 colon
Assay: NCI tumour cell line growth inhibition, 48 h
Recorded GI50 by entry

Query block: Request the reported GI50 associated with `COc1cc(-c2ccc(NC(=O)NC3CC3)c(OC)c2)ccc1NC(=O)NC1CC1`
Result block: 5.39 µM

Query block: Likewise for Cc1ccc(C2CC(c3cccc(Nc4ccncc4)c3)=NN2c2ccccc2)cc1 (configuration not stated) ?
Result block: 1.71 µM

Query block: Likewise for `O=C(O)Cn1c2c(c3c(O)cccc31)C(=O)c1ccccc1-2` ?
Result block: > 100 µM

Query block: Likewise for CCOc1c(C#N)c2c(N)ncnc2n1C1OC(CO)C(O)C1O (configuration not stated) ?
Result block: 2.18 µM

Query block: Likewise for `COc1ccc(CNc2cnc3cc(N)cc(N)c3n2)cc1` ?
Result block: 23.5 µM

Query block: Likewise for CSc1ccc(C2=NN(C(C)=O)C(c3ccc(F)cc3)C2)cc1 (configuration not stated) ?
Result block: 17.7 µM

***
Query block: Request the reported GI50 associated with `CC(C)(C)NC/C(=C\c1ccccc1)C(=O)c1ccccc1`
Result block: 1.22 µM

Query block: Likewise for `COC(=O)C1=C(O)[C@H](C(=O)OC)[C@]2(O)[C@@H](C(=O)OC)[C@H]1C[C@@H](c1ccc(OC(=O)/C=C/c3ccco3)cc1)[C@@H]2C(=O)OC` ?
Result block: 36.3 µM

---

Recorded TGI by entry
Tested on: A498 renal
Assay: NCI tumour cell line growth inhibition, 48 h
Numbers only; they are read as µM.

For orientation, consider the following solved cases.
Query block: Request the reported TGI associated with `COC(=O)c1ccc2c(c1)c1c(C)c3ccncc3c(C)c1n2C`
Result block: 13.7

Query block: Likewise for `CCCN1C(=O)/C(=C/c2ccc(O)cc2)SC1=Nc1ccc(OC)cc1` ?
Result block: 22.7

Query block: Likewise for `O=S(=O)(Nc1ccc2ccccc2c1)c1ccc(-c2cnc(C3CC3)o2)cc1` ?
Result block: 5.28

Query block: Likewise for `CN1CCN(Cc2ccc(NC(=O)c3cncc(C#Cc4cnn5ccccc45)c3)cc2C(F)(F)F)CC1` ?
Result block: 1.89

Query block: Likewise for CC1CC(C)C2=NOS3=C2C1=NO3 (stereo not drawn) ?
Result block: 94.8

Now for another entry.
Query block: Request the reported TGI associated with `CC[C@]12C=CCN3CC[C@@]4(c5ccc(OC)cc5N(C)[C@H]4[C@@](O)(C(=O)OC)[C@@H]1OC(=O)CCC(=O)N[C@H](Cc1c[nH]c4ccccc14)C(=O)OC)[C@@H]32`
Result block: 30.8

---

Recorded TGI by entry
Tested on: HOP-92 NSCLC
Assay: NCI tumour cell line growth inhibition, 48 h
Numbers only; they are read as µM.

Query block: Request the reported TGI associated with BrCC(Br)(c1ccccc1)c1ccccc1-c1cc(-c2ccccc2)cc(-c2ccccc2)n1 (centres undefined)
Result block: 11.4

***
Query block: Request the reported TGI associated with C=C1CCC2C3(C)COC(c4ccc(Cl)cc4)OC3CCC2(C)C1/C=C/C1=CCOC1=O (centres undefined)
Result block: 39.1

Query block: Likewise for `CN(C)Cc1cc(N=Nc2ccc(Cl)cc2)ccc1O` ?
Result block: 34.6

Query block: Likewise for `N#Cc1c(N)c(C#N)c2c(c1-c1ccc(Cl)cc1)COc1ccccc1-2` ?
Result block: 45.5
